Entry source: the supplement of paper PMC13172266

cell proliferation by entry:
# Tested on: U2932 TK216-resistant clone 2
# test-summary: cell proliferation relative to vehicle (% of vehicle); higher = less growth inhibition
# assay-context: 500 nM; 72 h
measured-quantity: cell proliferation

1. O=C(NC[C@H](O)CO)c1ccncc1Nc1ccc(I)cc1F    88.5
2. O=C(NCc1ccncc1)C12CC3CC(C1)CC(c1ccc(Cl)cc1)(C3)C2    91.5
3. COc1ccc(C2=N[C@@H](c3ccc(Cl)cc3)[C@@H](c3ccc(Cl)cc3)N2C(=O)N2CCNC(=O)C2)c(OC(C)C)c1 [Nutlin-3]    97.3
4. NC(=O)c1ccc(I)c([N+](=O)[O-])c1    98.2
5. O=c1cc(N2CCOCC2)oc2c(-c3ccccc3)cccc12    102
